Provenance of the data: ChEMBL document CHEMBL1201862

# AC50 per entry
- method-description: reduction of Shn3 3'UTR-driven luciferase in osteoblasts – cell-based, Clone20 osteoblasts, firefly luciferase, cherry-picked, dose response (AID 624132);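 also: firefly luciferase luminescence from reporter carrying the Shn3 3'UTR in osteoblasts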
- Type: functional
The source made the active and inactive calls. Rule as the data show it: actives have a measured AC50 and inactives only a lower limit.

Solved cases below.
1) O=C(c1ccc(S(=O)(=O)c2ccc(F)cc2)c([N+](=O)[O-])c1)N1CCCCCC1 | 2.38 µM (active)
2) COc1ccc(-c2nc(CN3CCN(c4ncnc5ccccc45)CC3)c(C)o2)c(OC)c1 | 6.38 µM (active)
3) CC1(Cc2ccc(OC(F)(F)F)cc2)C(=O)Nc2c(Cl)ccc(Cl)c21 (stereo not given) | 25.7 µM (active)
4) Cc1sc2ncnc(N3CCN(CCOc4ccc(Cl)cc4)CC3)c2c1C | 1.35 µM (active)

(Q) Tell me AC50 reported for CN(Cc1cccc(Cl)c1Cl)C(=O)c1cccc(S(=O)(=O)N2CCN(Cc3ccccc3)CC2)c1
(A) 3.38 µM (active)
